- method: Agonist activity at ComD2 receptor in Streptococcus pneumoniae TIGR4 harboring pcomX/lacZ reporter gene incubated for 30 mins by ONPG based beta-galactosidase assay
recorded metric: EC50

See these solved cases before continuing.
[[record]]
substance = "H-EMRLSKFFRDFILQR-OH"
reported_result = "> 1000 nM"

[[record]]
substance = "H-EMRISRIILDFLF-OH"
reported_result = "78 nM"


Consider the additional substance presented here.
**Q:** Could you please provide reported EC50 for H-EMRISRIILDFLFLRKK-OH ? Thanks!
**A:** 51 nM

====

- method: Agonist activity at ComD1 receptor in Streptococcus pneumoniae D39 harboring pcomX/lacZ reporter gene incubated for 30 mins by ONPG based beta-galactosidase assay
Non-standard residues stand in square brackets, D forms with d. Residues, ends and D or L forms follow the SMILES beside them. NMeF = CN[C@@H](Cc1ccccc1)C(=O)O; NMeQ = CN[C@@H](CCC(N)=O)C(=O)O
recorded metric: EC50 (nM)
Kindly provide the numeric value in nM only, without the unit symbol.

See these solved cases before continuing.
[[record]]
molecule = "CC[C@H](C)[C@H](NC(=O)[C@H](Cc1ccccc1)NC(=O)[C@H](CC(=O)O)NC(=O)[C@H](CCCNC(=N)N)NC(=O)[C@H](Cc1ccccc1)NC(=O)[C@H](Cc1ccccc1)NC(=O)[C@H](CCCCN)NC(=O)[C@H](CO)NC(=O)[C@H](CC(C)C)NC(=O)[C@H](CCCNC(=N)N)NC(=O)[C@H](CCSC)NC(=O)[C@@H](N)CCC(=O)O)C(=O)N[C@@H](CC(C)C)C(=O)N(C)[C@@H](CCC(N)=O)C(=O)N[C@@H](CCCNC(=N)N)C(=O)O (H-EMRLSKFFRDFIL[NMeQ]R-OH)"
reported_result = 68

[[record]]
molecule = "CC[C@H](C)[C@H](NC(=O)[C@H](Cc1ccccc1)NC(=O)[C@H](CC(=O)O)NC(=O)[C@H](CCCNC(=N)N)NC(=O)[C@H](Cc1ccccc1)NC(=O)[C@H](Cc1ccccc1)N(C)C(=O)[C@H](CCCCN)NC(=O)[C@H](CO)NC(=O)[C@H](CC(C)C)NC(=O)[C@H](CCCNC(=N)N)NC(=O)[C@H](CCSC)NC(=O)[C@@H](N)CCC(=O)O)C(=O)N[C@@H](CC(C)C)C(=O)N[C@@H](CCC(N)=O)C(=O)N[C@@H](CCCNC(=N)N)C(=O)O (H-EMRLSK[NMeF]FRDFILQR-OH)"
reported_result = 280


Consider the additional molecule presented here.
**Q:** Could you please provide reported EC50 for CC[C@H](C)[C@H](NC(=O)[C@H](Cc1ccccc1)NC(=O)[C@H](CC(=O)O)NC(=O)[C@H](CCCNC(=N)N)NC(=O)[C@H](Cc1ccccc1)NC(=O)[C@H](Cc1ccccc1)NC(=O)[C@H](CCCCN)NC(=O)[C@H](CO)NC(=O)[C@H](CC(C)C)NC(=O)[C@H](CCCNC(=N)N)NC(=O)[C@H](CCSC)NC(=O)[C@@H](N)CCC(=O)O)C(=O)N[C@@H](CC(C)C)C(=O)N[C@@H](CCC(N)=O)C(=O)N[C@@H](CCCNC(=N)N)C(=O)N[C@@H](CCCCN)C(=O)N[C@@H](CCCCN)C(=O)O ? Thanks!
**A:** 10

====

- System: Streptococcus pneumoniae D39
- method: Antagonist activity at ComD1 receptor in Streptococcus pneumoniae D39 harboring pcomX/lacZ reporter gene assessed as inhibiton of CSP1-stimulated maximum signal at 10 uM preincubated for 30 mins followed by 50 nM CSP1 addition by ONPG based beta-galactosidase assay relative to native CSP1
Calls of active or inactive are those of the source. The rule behind the calls is not given here. Non-standard residues stand in square brackets, D forms with d. Residues, ends and D or L forms follow the SMILES beside them. NMeR = CN[C@@H](CCCNC(=N)N)C(=O)O; NMeL = CN[C@@H](CC(C)C)C(=O)O; NMeM = CN[C@@H](CCSC)C(=O)O
recorded metric: inhibition

[[record]]
molecule = "CC[C@H](C)[C@H](NC(=O)[C@H](CCCNC(=N)N)NC(=O)[C@H](CCSC)N(C)C(=O)[C@@H](N)CCC(=O)O)C(=O)N[C@@H](CO)C(=O)N[C@@H](CCCNC(=N)N)C(=O)N[C@H](C(=O)N[C@H](C(=O)N[C@@H](CC(C)C)C(=O)N[C@@H](CC(=O)O)C(=O)N[C@@H](Cc1ccccc1)C(=O)N[C@@H](CC(C)C)C(=O)N[C@@H](Cc1ccccc1)C(=O)O)[C@@H](C)CC)[C@@H](C)CC (H-E[NMeM]RISRIILDFLF-OH)"
target_under_test = "Streptococcus pneumoniae D39"
recorded_metric = "inhibition"
reported_result = "inactive"

[[record]]
molecule = "CC[C@H](C)[C@H](NC(=O)[C@H](CCCNC(=N)N)NC(=O)[C@H](CCSC)NC(=O)[C@@H](N)CCC(=O)O)C(=O)N[C@@H](CO)C(=O)N(C)[C@@H](CCCNC(=N)N)C(=O)N[C@H](C(=O)N[C@H](C(=O)N[C@@H](CC(C)C)C(=O)N[C@@H](CC(=O)O)C(=O)N[C@@H](Cc1ccccc1)C(=O)N[C@@H](CC(C)C)C(=O)N[C@@H](Cc1ccccc1)C(=O)O)[C@@H](C)CC)[C@@H](C)CC (H-EMRIS[NMeR]IILDFLF-OH)"
target_under_test = "Streptococcus pneumoniae D39"
recorded_metric = "inhibition"
reported_result = "inactive"

[[record]]
molecule = "CC[C@H](C)[C@H](NC(=O)[C@H](CCCNC(=N)N)NC(=O)[C@H](CCSC)NC(=O)[C@@H](N)CCC(=O)O)C(=O)N[C@@H](CO)C(=O)N[C@@H](CCCNC(=N)N)C(=O)N[C@H](C(=O)N[C@H](C(=O)N[C@@H](CC(C)C)C(=O)N[C@@H](CC(=O)O)C(=O)N[C@@H](Cc1ccccc1)C(=O)N(C)[C@@H](CC(C)C)C(=O)N[C@@H](Cc1ccccc1)C(=O)O)[C@@H](C)CC)[C@@H](C)CC (H-EMRISRIILDF[NMeL]F-OH)"
target_under_test = "Streptococcus pneumoniae D39"
recorded_metric = "inhibition"
reported_result = "inactive"


# credit: ChEMBL document CHEMBL4364271
